assay: Colorimetry (CIEL*c*h*, ΔE2000) of anthocyanin isolates treated with pyruvic acid, 31 days storage; format: physicochemical; details: day 0 vs day 31, Delta E2000
reported_metric: total color change (ΔE)

For orientation, consider the following solved cases.
• OCC1O[C@@H](Oc2cc3c(O)cc(O)cc3[o+]c2-c2ccc(O)c(O)c2)C(O[C@@H]2OC(CO)[C@@H](O)C(O)[C@H]2O)C(O)[C@@H]1O (stereo partly drawn) [cy3soph, cyanidin-3-sophoroside] = 9.2
• OC[C@H]1O[C@@H](Oc2cc(O)cc3[o+]c(-c4ccc(O)c(O)c4)c(O[C@@H]4O[C@H](CO)[C@@H](O)[C@H](O)[C@H]4O[C@@H]4O[C@H](CO)[C@@H](O)[C@H](O)[C@H]4O)cc23)[C@H](O)[C@@H](O)[C@@H]1O [cy3soph5glu, cyanidin-3-sophoroside-5-glucoside] = 9.7
• OC[C@H]1O[C@@H](Oc2cc3c(O)cc(O)cc3[o+]c2-c2ccc(O)c(O)c2)[C@H](O)[C@@H](O)[C@H]1O [Cyanidin-3-galactoside, cyanidin-3-galactoside] = 8.2

a = C[C@@H]1O[C@@H](OC[C@H]2O[C@@H](Oc3cc4c(O)cc(O)cc4[o+]c3-c3ccc(O)c(O)c3)[C@H](O)[C@@H](O)[C@@H]2O)[C@H](O)[C@H](O)[C@H]1O [cy3rut, cyanidin-3-rutinoside]
b = OC[C@H]1O[C@@H](Oc2cc3c(O)cc(O)cc3[o+]c2-c2ccc(O)c(O)c2)[C@H](O[C@@H]2OC[C@@H](O)[C@H](O)[C@H]2O)[C@@H](O)[C@H]1O [cy3xylgal, cyanidin-3-(xylosyl)galactoside]
Q) For the pair a and b , which entry has the numerically smaller recorded total color change (ΔE)? Please indicate the selected item by its label.
A) a
